Attribution: ChEMBL document CHEMBL6134787

Tested on: Leishmania donovani
Test: Antileishmanial activity against wild type Leishmania donovani HU3 promastigotes […] assessed as inhibition of parasite growth incubated for 72 hrs by automatic microtiter plate reader analysis
Format: functional, organism-based
PROPERTY: pIC50
Value format note: pIC50 is -log10 of concentration (mol/L); just state the number.

-- ask Record request: pIC50 value, item Cn1c([N+](=O)[O-])cnc1COc1ccc(S(C)(=O)=O)cc1 [FEXINIDAZOLE SULFONE]
-- reply 5.42

-- ask # query: pIC50 of entry CSc1ccc(OC[C@@H]2Cn3cc([N+](=O)[O-])nc3O2)cc1
-- reply 5.96
